experiment: Storage stability of Oligosaccharide Crystals (I) and freeze-dried Oligosaccharide (I) powders (residual rate by HPLC); format: physicochemical; details: 105° C. in the atmosphere under ordinary pressure; days that passed: 1
METRIC: Residual rate of oligosaccharides: HPLC purity (%)

1. CC(=O)N[C@H]1[C@H](O[C@H]2[C@@H](O)[C@@H](CO)O[C@@H](O[C@H]3[C@H](O)[C@@H](O)C(O)O[C@@H]3CO)[C@@H]2O)O[C@H](CO)[C@@H](O[C@@H]2O[C@H](CO)[C@H](O)[C@H](O)[C@H]2O)[C@@H]1O (stereo partly drawn) [Freeze-dried Galβ1, 4GlcNAc-β1, 3Galβ1, 4Glc powders] [Galβ1,4GlcNAcβ1,3Galβ1,4Glc]
98.6
2. CC(=O)N[C@H]1[C@H](O[C@H]2[C@@H](O)[C@@H](CO)O[C@@H](O[C@H]3[C@H](O)[C@@H](O)C(O)O[C@@H]3CO)[C@@H]2O)O[C@H](CO)[C@@H](O[C@@H]2O[C@H](CO)[C@H](O)[C@H](O[C@@H]3O[C@H](CO)[C@@H](O)[C@H](O)[C@H]3NC(C)=O)[C@H]2O)[C@@H]1O (some centres unmarked) [Crystals No. 3]
99.3
